Attribution: patent US9682938B2

The entries below are paired with their reported half-life at 5 μM.
experiment: In vitro plasma stability, dog plasma; type: in vitro ADME; details: male, pH 7.4, 5 μM, 37° C., sampling 0-360 minutes, read-out: T1/2 Dog
reported-property: half-life at 5 μM (h)

| molecule | reported-property | meas-value |
| --- | --- | --- |
| COc1ccccc1C1=NN(C)C(=O)C1(C)NO (stereo not drawn) [Compound 55] | half-life at 5 μM | 1.93 |
| CO/N=C(\C)C1(NO)C(=O)N(C)N=C1C(C)(C)C (stereo not drawn) [Compound 10] | half-life at 5 μM | 0.667 |
| CC1(NO)C(=O)NN=C1c1ccc(S(C)(=O)=O)cc1 (stereo not drawn) [Compound 133] | half-life at 5 μM | 2.1 |
